# Tested on: HL-1
# Protocol details: relative cell viability (CellTiter-Glo) vs DMSO control (% of DMSO control); higher = more viable cells
# Applied conditions: oxygen condition: hypoxia 48 h (1% O2) + reoxygenation 24 h; 200 nM
Structures can show the parent of a compound that is named as a salt.
# relative cell viability annotations
Endpoint label: relative cell viability

- CC(=O)OCC(=O)[C@@]12N=C(C)O[C@@H]1C[C@H]1[C@@H]3CCC4=CC(=O)C=C[C@]4(C)[C@H]3[C@@H](O)C[C@@]12C [Deflazacort]: 90.3
- CCOC(=O)[C@H](CCc1ccccc1)N[C@H]1CCc2ccccc2N(CC(=O)O)C1=O [Benazepril hydrochloride]: 102
- CCOC(=O)C1=C(COCCN)NC(C)=C(C(=O)OC)C1c1ccccc1Cl (configuration not stated) [Amlodipine besylate]: 102
- O=C(O)c1ccc(-n2nc(-c3ccccc3O)nc2-c2ccccc2O)cc1 [Deferasirox]: 100
- Cl.N=C(N)NCCC[C@H](N)C(=O)O [L-Arginine HCl]: 104
- NC[C@H](O)c1ccc(O)c(O)c1 [Noradrenaline bitartrate monohydrate]: 104
- CO[C@H]1C(=O)[C@]2(C)[C@@H](OC)C[C@H]3OC[C@@]3(OC(C)=O)[C@H]2[C@H](OC(=O)c2ccccc2)[C@]2(O)C[C@H](OC(=O)[C@H](O)[C@@H](NC(=O)OC(C)(C)C)c3ccccc3)C(C)=C1C2(C)C [Cabazitaxel]: 34.3
